Each entry below carries its recorded binding score.
Target: PfCSP full length (Plasmodium falciparum (isolate NF54), UniProt P19597)
Sequence (P19597 20-375): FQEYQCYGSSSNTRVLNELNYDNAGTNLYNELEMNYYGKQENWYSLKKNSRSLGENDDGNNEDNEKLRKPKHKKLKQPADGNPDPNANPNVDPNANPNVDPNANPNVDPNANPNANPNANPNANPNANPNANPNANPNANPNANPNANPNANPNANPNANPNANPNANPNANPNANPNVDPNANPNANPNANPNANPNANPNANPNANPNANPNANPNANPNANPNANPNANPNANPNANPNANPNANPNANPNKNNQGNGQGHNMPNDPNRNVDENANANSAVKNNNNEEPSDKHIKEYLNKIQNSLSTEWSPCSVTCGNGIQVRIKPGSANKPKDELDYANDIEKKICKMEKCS
Experiment: ELISA AUC
measurement label: binding score

- CL-513691 (antibody, V domains shown, peptides N-terminally acetylated and C-terminally amidated) VH: QVQLVESGGDVVQTGRSLRLSCAASGFTFSNYGMHWVRQAPDKGLEWVAIIWYDGSNKFYADSVKGRFTISRDNSKNTLYLHIHSLRAEDTAVYYCARDDRGDSAGPYFVYWGQGTLVTVSS VL: EIVMTQSPATLSVSPGERATLSCRASQSVSDNLAWYQQRPGQAPRLLIYGASIRATGIPARFGGSGSGTEFTLTISILQSADFAVYYCQQHDSWPWTFGQGTKVEIK: 2.36
- CL-453181 (antibody, V domains shown, peptides N-terminally acetylated and C-terminally amidated) VH: QVQLVESGGGVVQPGRSLRLSCAASGFTFSYYGMHWVRQAPGKGLEWVSIIWYDGSNKFYADSVKGRFTISRDNSKDTLYLEMNSLRAEDTAVYYCARVEFYNGSGRDFYYGLDVWGQGTTVTVSS VL: EIVMTQSPATLSVSPGEGATLSCRASQSVSSNLAWYQQKPGQAPRLLISGASTRATGVPARFSGSGSGTEFALTISSLQSEDFAVYYCQQYSKLWTFGQGTKVEIK: 2.6
- CL-514146 (antibody, V domains shown, peptides N-terminally acetylated and C-terminally amidated) VH: QVQLVESGGGVVQPGRSLRLSCAVSGFTFSNSGMHWVRQAPGKGLEWVAIIWYDGNNKFYADSVKGRFTISRDNSKNTLYLQMNSLRAEDTSIYYCARAYPSGNYGDKYGMDVWGQGTTVTVSS VL: DIQMTQSPSTLSASVGDRVTITCRASQSISSWLAWFQQKPGNAPKLLIYKASSLESGVPSRFSGSGSGTEFTLTINSLQPDDFATYYCQQYNSFWTFGQGTKVEIK: 2.39
